Hello, the source for this data is the supplement of paper PMC7125110, in case you need it.

B1: glmS ribozyme (parent)
chain: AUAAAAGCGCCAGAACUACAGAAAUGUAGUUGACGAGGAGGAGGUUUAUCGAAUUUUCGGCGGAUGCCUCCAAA

- Variants of: B1
- test_details: self-cleavage kobs at 2500 uM GlcN6P; higher = faster cleavage; RNA array
- test_conditions: with glucosamine-6-phosphate
This sample holds only a part of the variants without activity.
// values below are reported self-cleavage kobs at 2500 uM GlcN6P

Answered cases to consult:
# sequence_variant, experimental_readout, measured_value
measured = [
    ("A15U A42C C67U C70G", "self-cleavage kobs at 2500 uM GlcN6P", "< 1e-05 s⁻¹"),
    ("C8G G38C C50A G66U", "self-cleavage kobs at 2500 uM GlcN6P", "< 1e-05 s⁻¹"),
    ("G29U C70G", "self-cleavage kobs at 2500 uM GlcN6P", "6.59e-05 s⁻¹"),
    ("G35A G41U A48G", "self-cleavage kobs at 2500 uM GlcN6P", "< 1e-05 s⁻¹"),
    ("C11U U47C", "self-cleavage kobs at 2500 uM GlcN6P", "5.91e-05 s⁻¹"),
]

Ask | # get_value(readout='self-cleavage kobs at 2500 uM GlcN6P', item= U46G U49A )
Reply | < 1e-05 s⁻¹

Ask | # get_value(readout='self-cleavage kobs at 2500 uM GlcN6P', item= G35C U69G )
Reply | < 1e-05 s⁻¹

Ask | # get_value(readout='self-cleavage kobs at 2500 uM GlcN6P', item= C8U G29A )
Reply | < 1e-05 s⁻¹

Ask | # get_value(readout='self-cleavage kobs at 2500 uM GlcN6P', item= C16U G32C G35A C68A )
Reply | < 1e-05 s⁻¹

Ask | # get_value(readout='self-cleavage kobs at 2500 uM GlcN6P', item= G13C U49C )
Reply | < 1e-05 s⁻¹
